Reference source: patent US10030027B2

- subject_of_test: sGC α1/β1 heterodimer (Homo sapiens (Human), UniProt Q02108+Q02153)
- Sequence (Q02108 whole entry): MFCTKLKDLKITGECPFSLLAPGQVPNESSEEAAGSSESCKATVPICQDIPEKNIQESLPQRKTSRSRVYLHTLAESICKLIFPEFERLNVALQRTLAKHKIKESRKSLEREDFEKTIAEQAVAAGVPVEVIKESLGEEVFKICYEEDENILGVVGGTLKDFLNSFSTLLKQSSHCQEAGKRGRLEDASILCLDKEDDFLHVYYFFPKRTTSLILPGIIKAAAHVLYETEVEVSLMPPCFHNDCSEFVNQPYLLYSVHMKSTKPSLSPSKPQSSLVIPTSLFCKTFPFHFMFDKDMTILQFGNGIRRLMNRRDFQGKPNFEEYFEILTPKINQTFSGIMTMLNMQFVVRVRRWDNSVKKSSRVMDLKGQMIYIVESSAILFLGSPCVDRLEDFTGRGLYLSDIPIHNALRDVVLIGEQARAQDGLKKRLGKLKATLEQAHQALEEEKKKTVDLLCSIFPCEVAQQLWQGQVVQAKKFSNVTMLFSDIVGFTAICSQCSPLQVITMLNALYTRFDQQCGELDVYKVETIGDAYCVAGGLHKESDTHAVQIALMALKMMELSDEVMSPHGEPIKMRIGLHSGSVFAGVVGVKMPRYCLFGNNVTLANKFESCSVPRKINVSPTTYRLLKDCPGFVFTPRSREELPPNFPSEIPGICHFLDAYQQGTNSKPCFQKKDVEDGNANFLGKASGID
- Sequence (Q02153 whole entry): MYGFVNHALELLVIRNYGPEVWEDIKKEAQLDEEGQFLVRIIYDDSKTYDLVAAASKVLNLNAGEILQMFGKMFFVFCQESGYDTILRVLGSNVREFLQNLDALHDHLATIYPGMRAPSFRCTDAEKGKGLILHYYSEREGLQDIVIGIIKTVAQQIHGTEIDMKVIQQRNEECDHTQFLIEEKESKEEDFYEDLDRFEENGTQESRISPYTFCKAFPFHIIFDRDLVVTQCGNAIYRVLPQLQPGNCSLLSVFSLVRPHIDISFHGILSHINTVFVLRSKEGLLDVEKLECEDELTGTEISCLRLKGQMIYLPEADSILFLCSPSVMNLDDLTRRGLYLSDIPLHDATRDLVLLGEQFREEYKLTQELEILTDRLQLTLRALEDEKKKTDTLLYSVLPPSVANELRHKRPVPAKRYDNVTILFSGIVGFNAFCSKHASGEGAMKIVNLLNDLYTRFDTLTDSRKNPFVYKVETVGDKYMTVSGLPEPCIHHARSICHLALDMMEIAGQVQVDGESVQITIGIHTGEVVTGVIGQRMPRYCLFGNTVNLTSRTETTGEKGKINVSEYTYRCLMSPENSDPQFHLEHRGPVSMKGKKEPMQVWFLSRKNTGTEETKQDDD
- experiment_summary: Cell-based sGC functional assay (cyclic GMP assay for sGC activator: CASA assay)
- stated_conditions: inflection point, 4P fit; CHO-K1/sGC cells; read-out: IP
pEC50: −log10 of the molar value.
property_label: pEC50

CCCCn1nc(-c2nc(N)c3c(n2)NC(=O)[C@@]3(C)c2ccc(CCC(=O)O)cc2)c2ccc(Cl)nc21 [Example 13B]    6.82
C[C@@]1(c2ccc(CCC(=O)O)cc2)C(=O)Nc2nc(-c3nn(Cc4ccc(F)cc4)c4ccccc34)nc(N)c21 (single isomer, unassigned) [Example 221B]    6.82
Cc1cccc(Cn2nc(-c3nc(N)c4c(n3)NC(=O)C4(C)c3nc(CC(C)(C)C(=O)O)co3)c3ccc(Cl)cc32)c1F (stereo not drawn) [Example 187A]    6.61
CC(C)(CC(=O)O)c1csc([C@]2(C)C(=O)Nc3nc(-c4nn(CCC(F)(F)C(F)(F)F)c5ncccc45)nc(N)c32)n1 [Example 79B]    6.07
CC1(c2cn(CC3(C(=O)O)CC3)nn2)C(=O)Nc2nc(-c3nn(CCC(F)(F)C(F)(F)F)c4cc(Cl)ccc34)nc(N)c21 (stereo not drawn) [Example 32B]    6.35
CC(C)(Cc1csc([C@]2(C)C(=O)Nc3nc(-c4nn(CC5CCCCC5)c5cc(F)ccc45)nc(N)c32)n1)C(=O)O [Example 201A]    7.41
CC(C)(CCc1csc(C2(C)C(=O)Nc3nc(-c4nn(Cc5ccccc5F)c5ccccc45)nc(N)c32)n1)C(=O)O (stereo not drawn) [Example 204A]    7.33
C[C@@]1(c2ccc(CCC(=O)O)cc2)C(=O)Nc2nc(-c3nn(CC45CC6CC(CC(C6)C4)C5)c4cc(Cl)ccc34)nc(N)c21 [Example 70B]    6.19
CC1(c2ccc(CCc3nn[nH]n3)cn2)C(=O)Nc2nc(-c3nn(Cc4ccccc4F)c4cc(Cl)ccc34)nc(N)c21 (single isomer, unassigned) [Example 247A]    5.40
CC(C)(Cc1csc(C2(C)C(=O)Nc3nc(-c4nn(CCC(F)(F)C(F)(F)F)c5ncc(F)cc45)nc(N)c32)n1)C(=O)O (stereo not drawn) [Example 84A]    6.89
CC(C)(Cc1csc([C@]2(C)C(=O)Nc3nc(-c4nn(CC5CCCC5)c5ncccc45)nc(N)c32)n1)C(=O)O (single isomer, unassigned) [Example 153A]    6.84
Cc1oc(C2(C)C(=O)Nc3nc(-c4nn(Cc5cccc(F)c5)c5cc(Cl)ccc45)nc(N)c32)nc1CC(C)(C)C(=O)O (stereo not drawn) [Example 176B]    5.83
